Test system: ENR+CD organoids
Assay: Primary screen: ATP (CellTiter-Glo 3D, CTG) cell number/viability, 2.5-D 384-well ENR+CD organoids
Conditions: primary screen, dose 0.40 uM
Where a name gives a salt, the structure may show the parent alone.
Measured Dose.FC.CTG (log2 fold change) determines class: range A = under -0.09, range B = from -0.09 up to 0.2, range C = 0.2 and over

These recorded examples may help you get a feel for the data.
Exercise: Which category fits this record: Cc1ccc(NCCCc2ccccc2)c(N)c1
Solution: range C

Exercise: Entry O=C(c1cn(Cc2cncn2Cc2ccc(Br)cc2)cc1-c1cccc2ccccc12)N1CCOCC1 belongs to which category?
Solution: range A

Exercise: Into which bin does this molecule go? Nc1cccc2c1CN(C1CCC(=O)NC1=O)C2=O (centres unmarked) [Lenalidomide (CC-5013)]
Solution: range B

Exercise: Could you place CC(C)(C)Cn1c(N)nc2ccc(-c3[nH]c(C(C)(C)C)nc3-c3ccc(F)cc3)nc21 in its proper category? Many thanks.
Solution: range A

---
Exercise: Bin? CCc1cc(Nc2nccc(-c3c(-c4ccc(OC)c(C(=O)Nc5c(F)cccc5F)c4)nc4ccccn34)n2)c(OC)cc1N1CCC(N2CCN(S(C)(=O)=O)CC2)CC1 [GSK1904529A]
Solution: range B

Exercise: Which Dose.FC.CTG (log2 fold change) band matches Oc1ccc2ccccc2c1SSc1c(O)ccc2ccccc12 ?
Solution: range A

Exercise: Entry Cc1cccc(-c2nn3c(c2-c2ccnc4ccc(C(N)=O)cc24)CCC3)n1 belongs to which category?
Solution: range B

Exercise: Where would CN1C2CCCC1CC(NC(=O)c1nn(C)c3ccccc13)C2 (centres unmarked) [Granisetron HCl] land among the classes by reported Dose.FC.CTG (log2 fold change)?
Solution: range B

Exercise: Which band does CC#CCn1c(N2CCC[C@@H](N)C2)nc2c1c(=O)n(Cc1nc(C)c3ccccc3n1)c(=O)n2C fall in?
Solution: range C

Exercise: # bin label for CC1=C(C(=O)Nc2cc3cn[nH]c3cc2F)C(c2ccc(C(F)(F)F)cc2)CC(=O)N1 (centres unmarked) [GSK429286A]
Solution: range C

Exercise: Class? Entry: Fc1cc(F)c2c(c1)[C@H]1C=CC[C@H]1C(c1cccnc1)N2 (mixture of isomers) [Golgicide A]
Solution: range C

* * *

Item-by-item account of Dose.FC.CTG
Test system: ENR+CD organoids
Assay: Primary screen: ATP (CellTiter-Glo 3D, CTG) cell number/viability, 2.5-D 384-well ENR+CD organoids;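 further: compounds given at plating and again on day 3 over a 6-day differentiation from ENR+CV stem-cell-enriched precursors, ATP measured on day 6, plate median as control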
Conditions: primary screen; dose 10.00 uM; FC vs plate median
Counter-ions that a name gives are not always drawn.
Field: value (include unit after the number)

Exercise: Report Dose.FC.CTG from ENR+CD organoids testing of OCCn1cc(-c2cnc3nnn(Cc4ccc5ncccc5c4)c3n2)cn1
Solution: 0.116 log2 fold change

Next:
Exercise: Give measured Dose.FC.CTG for COC(=O)C1=C(C#N)NC(C)=C(C(=O)OC(C)C)C1c1cccc([N+](=O)[O-])c1 (stereo not drawn) (ENR+CD organoids).
Solution: 0.192 log2 fold change

Exercise: # return Dose.FC.CTG for CN1C(=O)C(Cc2c[nH]c3ccccc23)NC1=S (stereo not drawn) , test system: ENR+CD organoids
Solution: 0.137 log2 fold change

Exercise: Consider the compound C=CCn1c(=O)c2cnc(Nc3ccc(N4CCN(C)CC4)cc3)nc2n1-c1cccc(C(C)(C)O)n1 tested on ENR+CD organoids; state its Dose.FC.CTG.
Solution: −1.026 log2 fold change

Exercise: Param request: Dose.FC.CTG | system ENR+CD organoids | item O=C(O)c1ccc(Nc2ncc3c(n2)-c2ccc(Cl)cc2C(c2c(F)cccc2F)=NC3)cc1
Solution: −0.498 log2 fold change

Exercise: Check ENR+CD organoids data and give Dose.FC.CTG for Cc1cc(C(C)(C)C)c(O)c(C)c1CC1=NCCN1 [Oxymetazoline HCl] .
Solution: 0.118 log2 fold change
